assay: physchem; settings: octanol/phosphate buffer
Description: Octanol-phosphate buffer partition coefficient, log P of the compound after 24 hrs by UV spectroscopic analysis
Consider the following molecules; for each one, report its logP at 24 h.
One number for each entry.

For every item in the list below, what is its measured logP at 24 h?
1. Cc1ccc(NC(=S)N/N=C/c2ccc(Oc3ccccc3)cc2)cc1
2. COc1ccc(NC(=S)N/N=C/c2ccc(Oc3ccc([N+](=O)[O-])cc3)cc2)cc1
3. S=C(N/N=C/c1ccc(Oc2ccc3c(c2)OCO3)cc1)Nc1ccccc1
4. Cc1ccc(NC(=S)N/N=C/c2ccc(Oc3ccc([N+](=O)[O-])cc3)cc2)cc1
5. S=C(N/N=C/c1ccc(Oc2ccc(Br)cc2)cc1)Nc1ccccc1
6. S=C(N/N=C/c1ccc(Oc2ccccc2)cc1)Nc1ccccc1
7. S=C(N/N=C/c1ccc(Oc2ccc(Cl)cc2)cc1)Nc1ccccc1

Outgoing:
1. 5.28
2. 4.9
3. 4.8
4. 5.23
5. 5.62
6. 4.9
7. 5.52

Incoming: Quick one: logP at 24 h of COc1ccc(NC(=S)N/N=C/c2ccc(Oc3ccc4ccccc4c3)cc2)cc1 ?
Outgoing: 6.11

----------
test: physchem; conditions: octanol/phosphate buffer
Consider the following compounds; for each one, report its logP at 24 h.
One number for each entry.

INSERT INTO results (molecule, meas_value) VALUES
  ('S=C(N/N=C/c1ccc(Oc2ccc(Cl)cc2)cc1)NC1CCCCC1', 6.44),
  ('O=[N+]([O-])c1ccc(Oc2ccc(/C=N/NC(=S)NC3CCCCC3)cc2)cc1', 5.51),
  ('Cc1cc(Oc2ccc(/C=N/NC(=S)NC3CCCCC3)cc2)ccc1Cl', 6.76),
  ('Cc1ccc(Oc2ccc(/C=N/NC(=S)Nc3ccccc3)cc2)cc1', 5.39),
  ('S=C(N/N=C/c1ccc(Oc2ccc3ccccc3c2)cc1)NC1CCCCC1', 6.79),
  ('Cc1ccc(NC(=S)N/N=C/c2ccc(Oc3ccc(Br)cc3)cc2)cc1', 6.23),
  ('COc1ccc(NC(=S)N/N=C/c2ccc(Oc3ccccc3)cc2)cc1', 4.99),
  ('COc1ccc(NC(=S)N/N=C/c2ccc(Oc3ccc(Cl)c(C)c3)cc2)cc1', 6.03),
  ('Cc1ccc(NC(=S)N/N=C/c2ccc(Oc3ccc(F)cc3)cc2)cc1', 5.48),
  ('Cc1ccc(Oc2ccc(/C=N/NC(=S)NC3CCCCC3)cc2)cc1', 6.17);

For every item in the list below, what is its measured logP at 24 h?
1. Cc1ccc(NC(=S)N/N=C/c2ccc(Oc3ccc(C)cc3)cc2)cc1
2. S=C(N/N=C/c1ccc(Oc2ccc(Br)cc2)cc1)NC1CCCCC1

Outgoing:
1. 5.84
2. 6.36

For every item in the list below, what is its measured logP at 24 h?
1. Cc1ccc(NC(=S)N/N=C/c2ccc(Oc3ccc(Cl)cc3)cc2)cc1
2. Cc1ccc(NC(=S)N/N=C/c2ccc(Oc3ccc4c(c3)OCO4)cc2)cc1
3. COc1ccc(NC(=S)N/N=C/c2ccc(Oc3ccc(F)cc3)cc2)cc1
4. Fc1ccc(Oc2ccc(/C=N/NC(=S)Nc3ccccc3)cc2)cc1
5. Cc1cc(Oc2ccc(/C=N/NC(=S)Nc3ccccc3)cc2)ccc1Cl

Outgoing:
1: 6.71; 2: 5.34; 3: 5.09; 4: 5.09; 5: 6.03

For every item in the list below, what is its measured logP at 24 h?
1. S=C(N/N=C/c1ccc(Oc2ccc3c(c2)OCO3)cc1)NC1CCCCC1
2. COc1ccc(NC(=S)N/N=C/c2ccc(Oc3ccc(Br)cc3)cc2)cc1

Outgoing:
1. 5.56
2. 5.84
